Tested on: T1, TRCW5 antigen (CD3δε-Fc-Avi) (biotinylated (site not stated))
T1 construct: also called recombinant CD3
T1 sequence (chain, as listed by the source mutant limits assumed): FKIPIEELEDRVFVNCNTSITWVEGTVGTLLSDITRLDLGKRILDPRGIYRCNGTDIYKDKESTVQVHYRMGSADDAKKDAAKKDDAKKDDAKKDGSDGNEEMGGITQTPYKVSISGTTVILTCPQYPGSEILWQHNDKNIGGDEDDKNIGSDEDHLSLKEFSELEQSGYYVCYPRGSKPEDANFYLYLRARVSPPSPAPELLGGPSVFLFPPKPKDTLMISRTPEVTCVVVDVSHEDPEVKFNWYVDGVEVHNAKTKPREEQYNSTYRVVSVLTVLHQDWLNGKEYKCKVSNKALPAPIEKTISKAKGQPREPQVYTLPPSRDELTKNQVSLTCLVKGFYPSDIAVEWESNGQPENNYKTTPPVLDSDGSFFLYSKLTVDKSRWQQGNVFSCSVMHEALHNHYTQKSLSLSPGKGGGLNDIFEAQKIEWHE
Test name: ELISA after heat
Endpoint name: % Retained 60° C. (%)
Give the value, in units of %, as a plain number.

Item: CD3B2079 (scFv) scFv: QVQLVQSGAEVKKPGSSVKVSCKASGYTFTRSTMHWVRQAPGQGLEWIGYINPSSAYTNYAQKFQGRVTLTADKSTSTAYMELSSLRSEDTAVYYCASPQVHYDYNGFPYWGQGTLVTVSSGGSEGKSSGSGSESKSTGGSEIVLTQSPATLSASPGERVTLSCSASSSVSYMNWYQQKPGTAPRRLIYDSSKLASGVPARFSGSGSGRDYTLTISSLEPEDFAVYYCQQWSRNPPTFGGGTKVEIK | % Retained 60° C.: 92

Input CD3B2067 (scFv) scFv: QVQLVQSGAEVKKPGSSVKVSCKASGYTFTRSTMHWVRQAPGQGLEWMGYINPSSAYTNYNQKFQGRVTLTADKSTSTAYMELSSLRSEDTAVYYCASPQVHYDYNGFPYWGQGTLVTVSSGGSEGKSSGSGSESKSTGGSEIVLTQSPATLSASPGERVTLSCSASSSVSYMNWYQQKPGQSPRRLIYDSSKLASGVPARFSGSGSGRDYTLTISSLEPEDFAVYYCQQWSRNPPTFGGGTKVEIK . Output % Retained 60° C.: 63

According to the records, this binder CD3B2087 (scFv) scFv: QVQLVQSGAEVKKPGSSVKVSCKASGYTFTRSTMHWVRQAPGQGLEWMGYINPSSAYTNYAQKFQGRVTLTADKSTSTAYMELSSLRSEDTAVYYCASPQVHYDYNGFPYWGQGTLVTVSSGGSEGKSSGSGSESKSTGGSEIVLTQSPATLSASPGERVTLSCSASSSVSYMNWYQQKPGTAPRRLIYDSSKLASGVPARFSGSGSGRDYTLTISSLEPEDFAVYYCQQWSRNPPTFGGGTKVEIK displays % Retained 60° C. of 94
